- Test system: HepG2
- protocol-details: cytotoxicity call (relative viability < 0.9)
- measurement-conditions: 10 µM
The campaign covered roughly 39,000 compounds. About 3,300 (8.5%) were called active. The sample as a whole holds a higher share of actives than the screen did.
Classes used: active, inactive

>>> category("COC(=O)c1ccc(O)cc1")
"inactive"
>>> category("COc1ccc(NC(=O)Nc2ccc3c(c2)CC(=O)N([C@@H](C)CO)C[C@H](C)[C@H](CN(C)Cc2ccc(C(F)(F)F)cc2)O3)cc1")
"active"
>>> category("C[C@H](CO)N1C[C@H](C)[C@H](CN(C)C(=O)Nc2ccc(C(F)(F)F)cc2)OCCCC[C@H](C)Oc2ccc(NS(=O)(=O)c3cccs3)cc2C1=O")
"active"
>>> category("COc1cccc(S(=O)(=O)N2C[C@H](O)COC[C@H]3O[C@@H](CC(=O)N4CCN(c5ccccc5)CC4)CC[C@@H]32)c1")
"inactive"
>>> category("COc1ccc2c3c([nH]c2c1)[C@H](CO)N(C[C@]13CN(C1)S(=O)(=O)c1ccccc1)C(=O)c1cnccn1")
"inactive"
>>> category("C[C@@H]1CN([C@@H](C)CO)C(=O)c2c(c3ccccc3n2C)-c2ccccc2CO[C@@H]1CN(C)Cc1cccc(C(=O)O)c1")
"inactive"
>>> category("COC(=O)c1ccc(C(=O)OC)nc1")
"active"
>>> category("CO[C@H]1CN(C)C(=O)c2ccc(NS(=O)(=O)CC(F)(F)F)cc2OC[C@H](C)N(C(=O)c2ccc3c(c2)OCO3)C[C@H]1C")
"inactive"

* * *

- Tested on: HepG2
- protocol-details: cytotoxicity call (relative viability < 0.9)
- measurement-conditions: 10 µM
In all, about 39,000 compounds went through this assay and about 3,300 (8.5%) were called active. Many of the other results were omitted from the sample, so actives are more common in it than they were.
parameter: cytotoxicity call

>>> endpoint_value("C[C@@H]1CN([C@@H](C)CO)C(=O)c2cccc(NC(=O)Nc3cccc4ccccc34)c2O[C@H]1CN(C)C(=O)Nc1ccc(C(F)(F)F)cc1")
"active"
>>> endpoint_value("CCCC#Cc1ccc2c(c1)O[C@H](CN(C)S(=O)(=O)c1cccc(OC)c1)[C@H](C)CN([C@H](C)CO)S2(=O)=O")
"inactive"
>>> endpoint_value("O=C(CN1CCOCC1)NCC[C@H]1CC[C@H](NS(=O)(=O)c2ccc(Cl)cc2)[C@H](CO)O1")
"inactive"
>>> endpoint_value("CS(=O)(=O)[O-].C[n+]1ccccc1C=NO")
"inactive"
>>> endpoint_value("C[C@@H]1CCCCO[C@H](CN(C)Cc2ccc(C(F)(F)F)cc2)[C@@H](C)CN([C@@H](C)CO)C(=O)c2cc(NC(=O)Nc3ccccc3)ccc2O1")
"active"
>>> endpoint_value("C[C@@H]1CCCCO[C@@H](CN(C)C(=O)c2ccccc2)[C@H](C)CN([C@H](C)CO)C(=O)c2cc(NS(=O)(=O)c3ccc(Cl)cc3)ccc2O1")
"inactive"
>>> endpoint_value("COc1cccc(S(=O)(=O)N(C)C[C@@H]2Oc3ncc(-c4cccc(C(=O)N(C)C)c4)cc3C(=O)N([C@@H](C)CO)C[C@H]2C)c1")
"inactive"
>>> endpoint_value("C[C@@H]1CCCCO[C@@H](CN(C)Cc2ccc(C(F)(F)F)cc2)[C@@H](C)CN([C@H](C)CO)C(=O)c2cc(NC(=O)Nc3ccccc3)ccc2O1")
"inactive"
>>> endpoint_value("C[C@@H]1CCCCO[C@@H](CN(C)C(=O)Nc2ccccc2)[C@H](C)CN([C@@H](C)CO)C(=O)c2cc(NS(=O)(=O)c3cccs3)ccc2O1")
"inactive"
>>> endpoint_value("C[C@H](CO)N1C[C@H](C)[C@@H](CN(C)S(=O)(=O)c2ccc(Cl)cc2)OCc2cnnn2CCCC1=O")
"inactive"
>>> endpoint_value("C[C@@H]1CCCCO[C@H](CN(C)Cc2ccc(C(F)(F)F)cc2)[C@H](C)CN([C@@H](C)CO)C(=O)c2cc(NC(=O)Nc3ccccc3)ccc2O1")
"active"
>>> endpoint_value("C[C@@H]1CCCCO[C@H](CN(C)C(=O)Nc2ccc(F)cc2)[C@@H](C)CN([C@H](C)CO)C(=O)c2cc(NS(=O)(=O)c3cccs3)ccc2O1")
"inactive"
>>> endpoint_value("C[C@H]1CCCCO[C@@H](CN(C)Cc2ccc(C(F)(F)F)cc2)[C@@H](C)CN([C@@H](C)CO)C(=O)c2cc(NC(=O)Nc3ccccc3)ccc2O1")
"active"
>>> endpoint_value("Cc1noc(C)c1S(=O)(=O)Nc1ccc2c(c1)C(=O)N([C@H](C)CO)C[C@H](C)[C@@H](CN(C)C(=O)Nc1ccccc1)OCCCC[C@H](C)O2")
"inactive"
